system: Severe acute respiratory syndrome-related coronavirus; test: Inhibition of SARS coronavirus papain-like protease (1541 to 1855 amino acids) expressed in Escherichia coli BL21 (DE3) using Z-RLRGG-AMC as substrate by fluorogenic assay
Property Measured: inhibition

# Molecule, Experimental Result
records = [
    ("CC(C)=CCC/C(C)=C/Cc1c(O)cc2c(c1O)C(=O)C[C@@H](c1ccc(O)cc1)O2", "Dose-dependent effect"),
    ("CC(C)(O)CCCC1(C)CCc2c(cc3c(c2O)C(=O)C[C@@H](c2ccc(O)c(O)c2)O3)O1 (stereo partly drawn)", "Dose-dependent effect"),
    ("COc1cc([C@@H]2CC(=O)c3c(cc(O)c(C/C=C(\\C)CCC=C(C)C)c3O)O2)cc(OC)c1O", "Dose-dependent effect"),
    ("COc1cc([C@H]2Oc3cc(O)c(C/C=C(\\C)CCC=C(C)C)c(O)c3C(=O)[C@@H]2O)ccc1O", "Dose-dependent effect"),
    ("COc1ccc([C@H]2Oc3cc(O)c(C/C=C(\\C)CCC=C(C)C)c(O)c3C(=O)[C@@H]2O)cc1O", "Dose-dependent effect"),
    ("COc1ccc([C@@H]2CC(=O)c3c(cc4c(c3O)CCC(C)(CCCC(C)(C)O)O4)O2)cc1O (stereo partly drawn)", "Dose-dependent effect"),
]

Measured inhibition of COc1cc([C@H]2Oc3cc4c(c(O)c3C(=O)[C@@H]2O)CCC(C)(CCCC(C)(C)O)O4)ccc1O (stereo partly drawn) : Dose-dependent effect

Note to self: inhibition recorded for `CC(C)=CCC/C(C)=C/Cc1c(O)cc2c(c1O)C(=O)C[C@@H](c1ccc(O)c(O)c1)O2` was Dose-dependent effect

* * *

test: Mixed-type of inhibition of SARS coronavirus papain-like protease (1541 to 1855 amino acids) expressed in Escherichia coli BL21 (DE3) using Z-RLRGG-AMC as substrate by Dixon plot analysis; design: species or system Severe acute respiratory syndrome-related coronavirus
Field: label. Allowed values: MET (Ki < 5 µM) or NOT MET (Ki >= 5 µM).

Q: Threshold test, Ki < 5 µM: `COc1ccc([C@@H]2CC(=O)c3c(cc(O)c(C/C=C(\C)CCC=C(C)C)c3O)O2)cc1O`
Ans: NOT MET

Q: Is Ki of `COc1cc([C@@H]2CC(=O)c3c(cc(O)c(C/C=C(\C)CCC=C(C)C)c3O)O2)cc(OC)c1O` strictly below 5 µM?
Ans: NOT MET

Q: Input `COc1ccc([C@H]2Oc3cc(O)c(C/C=C(\C)CCC=C(C)C)c(O)c3C(=O)[C@@H]2O)cc1O` ; condition: Ki strictly below 5 µM. Does it hold?
Ans: NOT MET

Q: Bench note: check whether COc1cc([C@@H]2CC(=O)c3c(cc4c(c3O)CCC(C)(CCCC(C)(C)O)O4)O2)cc(OC)c1O (some centres not stated) shows Ki below 5 µM
Ans: NOT MET

Q: Given the entry COc1cc([C@H]2Oc3cc4c(c(O)c3C(=O)[C@@H]2O)CCC(C)(CCCC(C)(C)O)O4)ccc1O (some centres not stated) , would its reported Ki be below 5 µM?
Ans: MET

* * *

experiment: Mixed-type of inhibition of SARS coronavirus papain-like protease (1541 to 1855 amino acids) expressed in Escherichia coli BL21 (DE3) using Z-RLRGG-AMC as substrate by Dixon plot analysis; parameters: species or system Severe acute respiratory syndrome-related coronavirus
Property Measured: Ki (µM)
Numeric only. Scale: µM

Sure, the documented Ki for `COc1cc([C@@H]2CC(=O)c3c(cc(O)c(C/C=C(\C)CCC=C(C)C)c3O)O2)ccc1O` is 7.1

Reported Ki for CC(C)(O)CCCC1(C)CCc2c(cc3c(c2O)C(=O)C[C@@H](c2ccc(O)c(O)c2)O3)O1 (some centres undefined) was 4.8

Entry under test: `COc1cc([C@H]2Oc3cc(O)c(C/C=C(\C)CCC=C(C)C)c(O)c3C(=O)[C@@H]2O)ccc1O` . Its Ki was 6.6

Reported Ki of `CC(C)=CCC/C(C)=C/Cc1c(O)cc2c(c1O)C(=O)C[C@@H](c1ccc(O)cc1)O2` : 7.8
